tested-on: T1, human MAdCAM expressed on cells (human, UniProt Q13477 19-382)
T1 construct: whole, on cells; also called MADCAM1
T1 sequence (looked up): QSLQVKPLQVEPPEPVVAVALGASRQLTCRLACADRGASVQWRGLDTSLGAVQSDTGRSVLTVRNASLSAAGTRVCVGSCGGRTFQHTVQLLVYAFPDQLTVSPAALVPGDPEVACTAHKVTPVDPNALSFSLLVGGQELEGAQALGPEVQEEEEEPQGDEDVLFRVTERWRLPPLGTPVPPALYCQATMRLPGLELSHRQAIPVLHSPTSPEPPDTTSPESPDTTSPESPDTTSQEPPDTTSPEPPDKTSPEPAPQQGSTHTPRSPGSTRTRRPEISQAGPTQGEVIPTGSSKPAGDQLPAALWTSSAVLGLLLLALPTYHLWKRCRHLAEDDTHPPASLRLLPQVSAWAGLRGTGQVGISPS
test: cell binding

binder	binding result
MAdCAM Antibody Table 2 Clone 42 (antibody, human IgG1, V domains shown) VH: QVQLVQSGAEVKKPGASVKVSCKASGYTLTDYYMHWVRQAPGQGLEWMGIINPSGGSTSYAQKFQGRVTMTRDTSTSTVYMELSSLRSEDTAVYYCAREEYSSSSGYFDYWGQGTLVTVSS VL: DIQMTQSPSSLSASVGDRVTITCRASQGISSWLAWYQQKPGKAPKLLIYAASSLQSGVPSRFSGSGSGTDFTLTISSLQPEDFATYYCQQSYSTPLTFGQGTKVEIK	binds
MAdCAM Antibody Table 2 Clone 25 (antibody, human IgG1, V domains shown) VH: EVQLLESGGGLVQPGGSLRLSCAASGFTFSNAWMSWVRQAPGKGLEWVSTIVGNGGATYYADSVKGRFTISRDNSKNTLYLQMNSLRAEDTAVYYCARDNPLRWQGMDVWGQGTLVTVSS VL: DIQMTQSPSSLSASVGDRVTITCRASQDISNYLNWYQQKPGKAPKLLIYAASSLQSGVPSRFSGSGSGTDFTLTISSLQPEDFATYYCQQSYSIPPTFGPGTKVDIK	binds

Where these numbers come from: patent US20210206856A1
